Target: T1, human sortilin stably expressed on HEK 293 cells (HEK-SORT1 cells) (human, UniProt Q99523 78-831)
T1 sequence (looked up): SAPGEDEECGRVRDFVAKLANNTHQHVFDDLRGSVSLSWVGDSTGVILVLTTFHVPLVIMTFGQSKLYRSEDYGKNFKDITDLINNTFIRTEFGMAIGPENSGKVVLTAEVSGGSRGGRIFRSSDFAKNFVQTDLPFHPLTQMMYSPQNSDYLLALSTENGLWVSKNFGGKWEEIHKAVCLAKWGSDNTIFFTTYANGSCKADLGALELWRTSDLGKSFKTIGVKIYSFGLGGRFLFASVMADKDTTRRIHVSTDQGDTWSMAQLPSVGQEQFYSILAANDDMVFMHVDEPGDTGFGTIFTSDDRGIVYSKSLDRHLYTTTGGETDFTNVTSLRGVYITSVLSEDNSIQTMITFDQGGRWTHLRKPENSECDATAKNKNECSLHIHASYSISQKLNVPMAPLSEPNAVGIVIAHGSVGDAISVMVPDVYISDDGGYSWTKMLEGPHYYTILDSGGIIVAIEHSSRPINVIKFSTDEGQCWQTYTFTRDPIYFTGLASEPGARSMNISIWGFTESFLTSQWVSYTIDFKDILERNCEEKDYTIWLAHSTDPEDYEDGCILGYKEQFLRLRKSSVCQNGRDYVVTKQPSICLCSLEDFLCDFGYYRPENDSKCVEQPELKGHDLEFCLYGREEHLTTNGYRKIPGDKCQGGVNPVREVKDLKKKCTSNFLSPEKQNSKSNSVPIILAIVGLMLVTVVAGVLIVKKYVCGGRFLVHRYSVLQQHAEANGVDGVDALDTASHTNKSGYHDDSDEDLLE
Test: cell-based or functional assay
Ends that are not written are not given here. * marks the point of attachment. Azidoacetyl = [N-]=[N+]=NCC(=O)*
Could you please report measured Mean Fluorescence Intensity (MFI), uptake 37C-4C, at 1000 nM for the items listed next?
Give your result in MFI as a bare value.

Exercise: // Mean Fluorescence Intensity (MFI), uptake 37C-4C, at 1000 nM lookup, key: XLYENKPRRPYIL (not fully specified; position 1 printed dK (X = 2-azido-acetyl lysine); side chain joined via triazolo-BCN carbamate / 6-aminohexanol linker to the 5' end of oligonucleotide … (SEQ ID NO 2, uniform MOE, phosphodiester, 3'-Cy3))
Key: 371

Exercise: Consider next the binder KLYENKPRKPYIL (not fully specified (residue 1)) [Compound No. 1270696, XLYENKPRKPYIL peptide conjugated to 20-mer MOE oligonucleotide with 3'-Cy3] in the same way.
Key: 1100

Exercise: Repeat for the following binder: K(Azidoacetyl)LYENKPKKPYIL (not fully specified; printed as 2-azido-acetyl-KLYENKPKKPYIL; also: azide joined via triazolo-BCN carbamate/6-aminohexanol linker to 5' end of 20-mer MOE oligonucleotide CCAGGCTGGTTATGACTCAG (uniform MOE, phosphodiester, 3'-Cy3)) [Compound No. 1270697, … peptide conjugated to 20-mer MOE oligonucleotide with 3'-Cy3]
Key: 474

Exercise: Same again, this time with XLYENKPKRPYIL (not fully specified; X at position 1 is 2-azido-acetyl lysine, joined via triazolo-BCN carbamate / 6-aminohexanol linker to 5' end of … (SEQ ID NO 2, uniform MOE, phosphodiester, 3'-Cy3)) [Compound No. 1270698, XLYENKPKRPYIL peptide conjugated to 20-mer MOE oligonucleotide with 3'-Cy3]
Key: 394
